Molecular target: Aurora2 kinase (Homo sapiens, UniProt O14965)
Construct: A complete recombinant Aurora2 enzyme; His tag (N); made in house; host or cells: E. coli
Sequence (O14965 whole entry): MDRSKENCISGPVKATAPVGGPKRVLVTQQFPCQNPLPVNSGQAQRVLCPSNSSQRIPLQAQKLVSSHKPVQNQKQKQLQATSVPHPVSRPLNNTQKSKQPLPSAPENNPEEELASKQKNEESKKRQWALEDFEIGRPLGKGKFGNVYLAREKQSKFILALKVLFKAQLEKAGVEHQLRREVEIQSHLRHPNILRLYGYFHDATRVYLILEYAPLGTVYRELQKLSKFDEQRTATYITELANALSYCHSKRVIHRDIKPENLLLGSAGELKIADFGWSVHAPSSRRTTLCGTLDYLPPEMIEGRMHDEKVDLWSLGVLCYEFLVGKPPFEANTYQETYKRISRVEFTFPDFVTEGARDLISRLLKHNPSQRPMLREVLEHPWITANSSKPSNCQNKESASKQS
Experiment: Aurora2 kinase radioactivity scintillation assay using nickel chelate (NuMA substrate)
Assay type: biochemical
Settings: 10 μM; read-out: Aurora2 % inhib at 10 μM
Decision: inhibition at 10 µM >= 90% yields criterion met, all other cases yield criterion not met.

Cc1ccc(-c2n[nH]c3ccc(NS(=O)(=O)c4ccccc4S(C)(=O)=O)cc23)cc1N
criterion met
O=[N+]([O-])c1ccc(S(=O)(=O)Nc2ccc3[nH]nc(-c4ccccc4)c3c2)cc1
criterion not met
CC(=O)Nc1ccccc1-c1n[nH]c2ccc(NS(=O)(=O)c3ccccc3S(C)(=O)=O)cc12
criterion not met
COc1ccc(-c2n[nH]c3ccc(NS(=O)(=O)c4ccccc4S(C)(=O)=O)cc23)c(OC)c1OC
criterion not met
Cc1cc(C)c(S(=O)(=O)Nc2ccc3[nH]nc(-c4ccccc4)c3c2)c(C)c1
criterion not met
CS(=O)(=O)c1ccccc1S(=O)(=O)Nc1ccc2[nH]nc(NCc3ccccc3)c2c1
criterion not met
COc1ccc(-c2n[nH]c3ccc(NS(=O)(=O)c4ccccc4S(C)(=O)=O)cc23)c(OC)c1
criterion not met
Cc1c(S(=O)(=O)Nc2ccc3[nH]nc(-c4ccccc4)c3c2)sc2ccc(Cl)cc12
criterion not met

Check this compound for inhibition at 10 µM at or above 90%: O=S(=O)(Nc1ccc2[nH]nc(-c3ccccc3)c2c1)c1cccnc1
criterion met

Check this compound for inhibition at 10 µM at or above 90%: CS(=O)(=O)c1ccccc1S(=O)(=O)Nc1ccc2[nH]nc(-c3cccc(Cl)c3)c2c1
criterion met

Check this compound for inhibition at 10 µM at or above 90%: CS(=O)(=O)c1ccccc1S(=O)(=O)Nc1ccc2[nH]nc(-c3ccc(-c4ccccc4)cc3)c2c1
criterion not met

Check this compound for inhibition at 10 µM at or above 90%: CCOc1ccccc1-c1n[nH]c2ccc(NS(=O)(=O)c3ccccc3S(C)(=O)=O)cc12
criterion not met

Check this compound for inhibition at 10 µM at or above 90%: CS(=O)(=O)c1ccccc1S(=O)(=O)Nc1ccc2[nH]nc(-c3cccc(O)c3)c2c1
criterion met

Check this compound for inhibition at 10 µM at or above 90%: CS(=O)(=O)c1ccccc1S(=O)(=O)Nc1ccc2[nH]nc(-c3ccc(O)cc3)c2c1
criterion met

Check this compound for inhibition at 10 µM at or above 90%: CS(=O)(=O)c1ccccc1S(=O)(=O)Oc1ccc2[nH]nc(-c3nc4ccccc4[nH]3)c2c1
criterion met
